Procedure Summary: Inhibition of bacterial DNA gyrase
Experimental Endpoint: IC50 (µg/mL)
Number in µg/mL, nothing else.

> print(dat)
                                   compound  experimental.endpoint  unit.of.measure   val
1  COc1ccc2nccc(-n3cc4c(n3)CCC(NC(=O)c3ccc5c(c3)NC(=O)CS5)C4)c2c1 (centres undefined)                   IC50            µg/mL  0.12
2  Cc1cc(-n2cc3c(n2)CCC(NC(=O)c2ccc4c(c2)NC(=O)CS4)C3)c2cc(F)ccc2n1 (centres undefined)                   IC50            µg/mL     4
3  COc1ccc2nccc(-n3cc4c(n3)CCC(NC(=O)c3cc5c(cc3C(F)(F)F)SCC(=O)N5)C4)c2n1 (centres undefined)                   IC50            µg/mL  0.25
4  COc1ccc2nccc(-n3cc4c(n3)CCC(NC/C=C/c3ccccc3)C4)c2c1 (centres undefined)                   IC50            µg/mL     4
5  COc1ccc2nccc(-n3cc4c(n3)CCC(NCc3ccc5c(c3)NC(=O)CS5)C4)c2c1 (centres undefined)                   IC50            µg/mL  0.06

Q: Record request: IC50 value, item COc1ccc2nccc(-n3cc4c(n3)CCC(NC(=O)c3cc5c(cc3Br)SCC(=O)N5)C4)c2c1 (centres undefined)
A: 0.5

Q: Then what about the compound COc1ccc2nccc(-n3cc4c(n3)CCC(NCc3ccc5c(n3)NC(=O)CO5)C4)c2c1 (centres undefined) ?
A: 0.06

Q: Then what about the compound COc1ccc2nccc(-n3cc4c(n3)CCC(NC(=O)c3ccc5c(c3)OCCO5)C4)c2c1 (centres undefined) ?
A: 4

###

Procedure Summary: Inhibition of bacterial DNA topoisomerase 4
IC50 under 0.1 µg/mL gets 1, anything at or over 0.1 µg/mL gets 0.

> print(dat)
                                   compound  category
1  COc1ccc2nccc(-n3cc4c(n3)CCC(NC(=O)c3ccc5c(c3)NC(=O)CS5)C4)c2n1 (centres undefined)         0
2  COc1ccc2nccc(-n3cc4c(n3)CCC(NC/C=C/c3ccccc3)C4)c2n1 (centres undefined)         1
3  COc1ccc2nccc(-n3cc4c(n3)CCC(NC(=O)c3ccc5c(c3)NC(=O)CO5)C4)c2n1 (centres undefined)         0
4  COc1ccc2nccc(-n3cc4c(n3)CCC(NC(=O)c3ccc5c(c3)OCCO5)C4)c2n1 (centres undefined)         0
5  COc1ccc2nccc(-n3cc4c(n3)CCC(NC(=O)/C=C/c3ccccc3)C4)c2c1 (centres undefined)         0

Q: Determine whether this compound shows IC50 lower than 0.1 µg/mL (ties excluded): COc1ccc2nccc(-n3cc4c(n3)CCC(NCc3ccc5c(c3)OCCO5)C4)c2c1 (centres undefined)
A: 1

###

System: Streptococcus pneumoniae
Procedure Summary: Antibacterial activity against Streptococcus pneumoniae ATCC 49619
Format: functional
MIC under 2 µg/mL gets met, anything at or over 2 µg/mL gets not met.

Before answering, review these 7 worked examples.
> print(dat)
                                   compound  category
1  COc1ccc2nccc(-n3cc4c(n3)CCC(NC(=O)c3cc5c(cc3C(F)(F)F)SCC(=O)N5)C4)c2n1 (stereo not given)   not met
2  O=C1CSc2ccc(C(=O)NC3CCc4nn(-c5cccc6ccccc56)cc4C3)cc2N1 (stereo not given)   not met
3  COc1ccc2nccc(-n3cc4c(n3)CCC(NCc3ccc5c(c3)NCCS5)C4)c2c1 (stereo not given)       met
4  COc1ccc2nccc(-n3cc4c(n3)CCC(NC(=O)c3cc5c(cc3Cl)SCC(=O)N5)C4)c2n1 (stereo not given)   not met
5  COc1ccc2nccc(-n3cc4c(n3)CCC(NCc3ccc5c(c3)OCCO5)C4)c2n1 (stereo not given)       met
6  CCOC(=O)c1cc2c(cc1C(=O)NC1CCc3nn(-c4ccnc5ccc(OC)cc45)cc3C1)NC(=O)CS2 (stereo not given)   not met
7  COc1ccc2nccc(-n3cc4c(n3)CCC(NC(=O)c3cc5c(cc3F)SCC(=O)N5)C4)c2c1 (stereo not given)       met

API: the following record is the query input.
Q: Determine whether this compound shows MIC lower than 2 µg/mL (ties excluded): CCOC(=O)c1cc2c(cc1C(=O)NC1CCc3nn(-c4ccnc5ccc(OC)nc45)cc3C1)NC(=O)CS2 (stereo not given)
A: not met
